SYSTEM: human-derived recombinant BTK protein (Homo sapiens)
Sequence (Q06187 whole entry): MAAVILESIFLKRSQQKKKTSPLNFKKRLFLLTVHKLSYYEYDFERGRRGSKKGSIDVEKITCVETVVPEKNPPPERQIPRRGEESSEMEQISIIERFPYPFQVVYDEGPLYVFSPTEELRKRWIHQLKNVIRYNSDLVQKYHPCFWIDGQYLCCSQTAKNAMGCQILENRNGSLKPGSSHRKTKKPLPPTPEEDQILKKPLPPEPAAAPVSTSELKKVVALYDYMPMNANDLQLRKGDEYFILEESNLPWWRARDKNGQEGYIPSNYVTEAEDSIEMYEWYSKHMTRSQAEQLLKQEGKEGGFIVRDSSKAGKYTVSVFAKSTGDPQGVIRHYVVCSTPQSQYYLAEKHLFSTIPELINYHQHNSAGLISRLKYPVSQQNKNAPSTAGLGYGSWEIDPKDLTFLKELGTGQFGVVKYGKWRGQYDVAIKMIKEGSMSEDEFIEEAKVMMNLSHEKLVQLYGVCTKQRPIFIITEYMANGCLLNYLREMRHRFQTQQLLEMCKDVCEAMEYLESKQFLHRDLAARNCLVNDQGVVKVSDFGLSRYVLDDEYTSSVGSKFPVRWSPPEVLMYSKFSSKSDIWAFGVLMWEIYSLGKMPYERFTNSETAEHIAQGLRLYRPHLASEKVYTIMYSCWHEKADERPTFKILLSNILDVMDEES
TEST PROTOCOL: BTK activity inhibition assay (HTRF in vitro kinase assay)
PROTOCOL CONDITIONS: 40 μM ATP, 0.2 ng/μL BTK
READOUT NAME: IC50 (nM)

INSERT INTO measurements (compound, unit_abbrev, numeric_readout) VALUES
  ('COc1ccccc1C(=O)NCc1ccc(-c2nc(C3CCC(CO)OC3)n3ccnc(N)c23)cc1F (stereo not shown)', 'nM', 20),
  ('COc1ccc(F)cc1C(=O)NCc1ccc(-n2c(=O)n(C34CCC(C(=O)N5CCOCC5)(CC3)CC4)c3ncnc(N)c32)cc1', 'nM', 5.8),
  ('COc1ccc(F)cc1C(=O)NCc1ccc(-c2nc(C34CCC(C(=O)N5CCOCC5)(CC3)CC4)n3ccnc(N)c23)cc1', 'nM', 1.3),
  ('COc1ccc(F)cc1C(=O)NCc1ccc(-c2nc(C34CC(C(=O)O)(C3)C4)n3ncnc(N)c23)cc1', 'nM', 0.6),
  ('COc1ccc(F)cc1C(=O)NCc1ccc(-n2c(=O)n(C(C)C(F)(F)F)c3ncnc(N)c32)cc1 (stereo not shown)', 'nM', 5.6),
  ('COc1ccc(F)cc1C(=O)NCc1ccc(-c2nn(C3CCC(CO)CC3)c3ccnc(N)c23)cc1 (stereo not shown)', 'nM', 1.7),
  ('COc1ccc(F)cc1C(=O)NCc1ccc(-c2nc([C@H]3CC[C@H](CN)CC3)n3ccnc(N)c23)cc1', 'nM', 3.4),
  ('COc1ccc(F)cc1C(=O)NCc1ccc(-n2c(=O)n(C34CCC(C(=O)O)(CC3)CC4)c3ncnc(N)c32)cc1', 'nM', 1.2),
  ('COc1ccc(F)cc1C(=O)NCc1ccc(-c2nc(C3CCCOC3)n3ccnc(N)c23)cc1 (stereo not shown)', 'nM', 1.7),
  ('COc1ccc(F)cc1C(=O)NCc1ccc(-c2nc([C@]3(C)CC[C@](C)(C(=O)OC)CC3)n3ccnc(N)c23)cc1', 'nM', 3.3);

* * *

SYSTEM: human recombinant BTK C481S protein (Homo sapiens, UniProt Q06187, C481S)
Sequence (Q06187 whole entry C481S): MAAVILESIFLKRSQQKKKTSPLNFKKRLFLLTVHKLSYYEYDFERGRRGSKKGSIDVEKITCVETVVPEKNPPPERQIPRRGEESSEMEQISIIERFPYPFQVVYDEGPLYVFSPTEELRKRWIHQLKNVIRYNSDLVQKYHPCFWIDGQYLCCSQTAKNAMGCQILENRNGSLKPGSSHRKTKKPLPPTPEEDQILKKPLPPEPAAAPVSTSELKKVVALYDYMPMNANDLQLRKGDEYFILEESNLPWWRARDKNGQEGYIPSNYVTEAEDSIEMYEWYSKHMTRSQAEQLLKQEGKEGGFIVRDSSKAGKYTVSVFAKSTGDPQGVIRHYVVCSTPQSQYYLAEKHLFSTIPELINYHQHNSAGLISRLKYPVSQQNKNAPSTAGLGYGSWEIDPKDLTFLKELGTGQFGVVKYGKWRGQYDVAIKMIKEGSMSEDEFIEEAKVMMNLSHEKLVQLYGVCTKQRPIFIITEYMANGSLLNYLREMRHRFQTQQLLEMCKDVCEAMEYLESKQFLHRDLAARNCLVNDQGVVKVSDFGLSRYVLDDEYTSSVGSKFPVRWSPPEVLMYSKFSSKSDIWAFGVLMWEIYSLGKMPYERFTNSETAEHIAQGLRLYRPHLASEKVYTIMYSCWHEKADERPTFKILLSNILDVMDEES
TEST PROTOCOL: BTK C481S activity inhibition assay (HTRF in vitro kinase assay)
PROTOCOL CONDITIONS: 35 μM ATP, 1.5 ng/μL BTK C481S
READOUT NAME: log10 of IC50 (log10 of the value in nM)

INSERT INTO measurements (compound, numeric_readout) VALUES
  ('COc1ccc(F)cc1C(=O)NCc1ccc(-c2nc(N3CCOCC3)n3ccnc(N)c23)cc1 [Compound 44]', 0.85),
  ('COc1ccc(F)cc1C(=O)NCc1ccc(-n2c(=O)n(C34CCC(C(=O)N5CCOCC5)(CC3)CC4)c3ncnc(N)c32)cc1 [Compound 54]', 0.79),
  ('COc1ccc(F)cc1C(=O)NCc1ccc(-n2c(=O)n(C3CCOCC3)c3ccnc(N)c32)cc1 [Compound 52]', 1.48),
  ('COc1ccc(F)cc1C(=O)NCc1ccc(-c2nc(C3CCOC3)n3ncnc(N)c23)cc1 (stereo not shown) [Compound 17]', 0.38),
  ('COc1ccc(F)cc1C(=O)NCc1ccc(-c2nc(C3CCC(CO)OC3)n3ccnc(N)c23)cc1 (stereo not shown) [Compound 8]', -0.10),
  ('COc1ccc(F)cc1C(=O)NCc1ccc(-c2nc(C34CC(C(=O)O)(C3)C4)n3ncnc(N)c23)cc1 [Compound 31]', 0.48),
  ('COC(=O)C12CCC(c3nc(-c4ccc(CNC(=O)c5cc(F)ccc5OC)cc4)c4c(N)nccn34)(CC1)C2 [Compound 38]', 0.32);

* * *

This section presents compounds with their documented IC50 values.
SYSTEM: human recombinant BTK C481S protein (Homo sapiens, UniProt Q06187, C481S)
TEST PROTOCOL: BTK C481S activity inhibition assay (HTRF in vitro kinase assay)
PROTOCOL CONDITIONS: 35 μM ATP, 1.5 ng/μL BTK C481S
READOUT NAME: IC50 (nM)

INSERT INTO results (compound, readout_name, unit_abbrev, numeric_readout) VALUES
  ('COC(=O)C12CCC(c3nc(-c4ccc(CNC(=O)c5cc(F)ccc5OC)cc4)c4c(N)ncnn34)(CC1)CC2', 'IC50', 'nM', 2.2),
  ('COc1ccc(F)cc1C(=O)NCc1ccc(-n2c(=O)n(C(C)C(F)(F)F)c3ncnc(N)c32)cc1 (centres unmarked)', 'IC50', 'nM', 21),
  ('[2H]C([2H])([2H])Oc1ccc(F)cc1C(=O)NCc1ccc(-c2nc(C3CCCOC3)n3ccnc(N)c23)cc1 (centres unmarked)', 'IC50', 'nM', 1.5),
  ('CNC(=O)C12CCC(c3nc(-c4ccc(CNC(=O)c5cc(F)ccc5OC)cc4)c4c(N)nccn34)(CC1)CC2', 'IC50', 'nM', 3.4),
  ('COc1ccccc1C(=O)NCc1ccc(-c2nc(C3CCC(CO)OC3)n3ccnc(N)c23)cc1 (centres unmarked)', 'IC50', 'nM', 3.6),
  ('COc1ccc(F)cc1C(=O)NCc1ccc(-c2nc(C34CCC(C(=O)O)(CC3)CC4)n3ccnc(N)c23)cc1', 'IC50', 'nM', 1.5),
  ('COc1ccc(F)cc1C(=O)NCc1ccc(-c2nc(C3CCCOC3)n3ncnc(N)c23)cc1 (centres unmarked)', 'IC50', 'nM', 1.1),
  ('COc1ccc(F)cc1C(=O)NCc1ccc(-c2nc([C@]3(C)CC[C@@](C)(C(=O)O)CC3)n3ccnc(N)c23)cc1', 'IC50', 'nM', 6.3),
  ('COc1ccc(F)cc1C(=O)NCc1ccc(-c2nc(C3CCCOC3)n3ccnc(N)c23)cc1 (centres unmarked)', 'IC50', 'nM', 1.8),
  ('COc1ccc(F)cc1C(=O)NCc1ccc(-c2nc(C3(C(F)(F)F)CC3)n3ccnc(N)c23)cc1', 'IC50', 'nM', 4.3),
  ('COc1ccc(F)cc1C(=O)NCc1ccc(-c2nc(C(C)C(F)(F)F)n3ncnc(N)c23)cc1 (centres unmarked)', 'IC50', 'nM', 11),
  ('COc1ccccc1C(=O)NCc1ccc(-c2nc(C3CCC(CO)OC3)n3ccnc(N)c23)cc1F (centres unmarked)', 'IC50', 'nM', 3.9),
  ('COc1ccc(F)cc1C(=O)NCc1ccc(-c2nc([C@@H]3CCN(C(=O)C4CC4)C3)n3ncnc(N)c23)cc1', 'IC50', 'nM', 2.5),
  ('COc1ccc(C)nc1C(=O)NCc1ccc(-c2nc(C3CCCOC3)n3ccnc(N)c23)cc1 (centres unmarked)', 'IC50', 'nM', 201),
  ('COc1ccc(F)cc1C(=O)NCc1ccc(-c2nc(C3(C(F)(F)F)CC3)n3ncnc(N)c23)cc1', 'IC50', 'nM', 5.4),
  ('COc1ccc(F)cc1C(=O)NCc1ccc(-c2nc(C34CCC(C(=O)O)(CC3)C4)n3ccnc(N)c23)cc1', 'IC50', 'nM', 1.1),
  ('[2H]C([2H])([2H])Oc1ccc(F)cc1C(=O)NCc1ccc(-c2nc([C@H]3CC[C@H](CO)CC3)n3ncnc(N)c23)cc1', 'IC50', 'nM', 0.8),
  ('COc1ccc(F)cc1C(=O)NCc1ccc(-c2nc([C@@H]3CCNC3)n3ncnc(N)c23)cc1', 'IC50', 'nM', 36),
  ('COc1ccc(F)cc1C(=O)NCc1ccc(-c2nn(C3CCC(CO)CC3)c3ccnc(N)c23)cc1 (centres unmarked)', 'IC50', 'nM', 2.5),
  ('COc1ccc(F)cc1C(=O)NCc1ccc(-c2nc([C@H]3CC[C@H](CO)CC3)n3ccnc(N)c23)cc1', 'IC50', 'nM', 2.6),
  ('COc1ccc(F)cc1C(=O)NCc1ccc(-n2c(=O)n(C3CCOCC3)c3ncnc(N)c32)cc1', 'IC50', 'nM', 9.2),
  ('CNC(=O)[C@H]1CC[C@H](c2nc(-c3ccc(CNC(=O)c4cc(F)ccc4OC)cc3)c3c(N)nccn32)CC1', 'IC50', 'nM', 3),
  ('COc1ccc(F)cc1C(=O)NCc1ccc(-c2nc(N3CCOCC3)n3ncnc(N)c23)cc1', 'IC50', 'nM', 2.6),
  ('COc1ccc(F)cc1C(=O)NCc1ccc(-c2nc([C@]3(C)CC[C@@](C)(C(=O)O)CC3)n3ncnc(N)c23)cc1', 'IC50', 'nM', 1.4),
  ('COc1ccc(F)cc1C(=O)NCc1ccc(-n2c(=O)n([C@H]3CC[C@H](CO)CC3)c3ncnc(N)c32)cc1', 'IC50', 'nM', 20),
  ('COc1ccc(F)cc1C(=O)NCc1ccc(-c2nc(N3CCC(C)(C(=O)O)CC3)n3ccnc(N)c23)cc1', 'IC50', 'nM', 1.3),
  ('COc1ccc(F)cc1C(=O)NCc1ccc(-n2c(=O)n(C34CCC(C(=O)O)(CC3)CC4)c3ncnc(N)c32)cc1', 'IC50', 'nM', 8.2),
  ('COc1ccc(F)cc1C(=O)NCc1ccc(-c2nn([C@H]3CC[C@@H](O)CC3)c3ccnc(N)c23)cc1', 'IC50', 'nM', 4.6),
  ('COc1ccc(F)cc1C(=O)NCc1ccc(-c2nn([C@H]3CC[C@H](O)CC3)c3ccnc(N)c23)cc1', 'IC50', 'nM', 3);
